GI50: recorded values
Tested on: ACHN
Assay: NCI tumour cell line growth inhibition, 48 h
The source made the active and inactive calls. Cut-off read from the data, not from the text of the source: active = GI50 up to about 1.1 µM and inactive = higher.

Please review the entries below; each comes with its answer.
INSERT INTO measurements (compound, test_value) VALUES
  ('CCOc1ccc2nc(NC(=O)C(=O)C(c3cnc4ccccc4n3)[N+](=O)[O-])sc2c1 (centres undefined)', '43.8 µM (inactive)'),
  ('Cn1c2ccccc2c2c3c(=O)[nH][nH]c(=O)c3c3c4ccccc4n(C)c3c21', '> 100 µM (inactive)'),
  ('Cc1cnc2ccc(C)c([N+](=O)[O-])c2c1NCCCN(C)C', '> 100 µM (inactive)'),
  ('COc1c2c(cc3nc4ccccc4nc13)CCC(C(C)(C)O)C2 (centres undefined)', '> 100 µM (inactive)'),
  ('Brc1cccc(/C=C/CN2CCN(CCOC(c3ccccc3)c3ccccc3)CC2)c1', '17.5 µM (inactive)'),
  ('COc1cc2c(cc1OC)C(CC1=C(c3ccccc3)CN3CCc4cc(OC)c(OC)cc4C3C1)NCC2 (centres undefined)', '24.3 µM (inactive)');

Sample `Cn1nc(-c2ccccc2)c2c(/C=C/c3ccccc3)onc2c1=O` — what was its GI50?
> 100 µM (inactive)

GET /values?readout=GI50&item= CC(=O)C1C(=O)C(=O)N(c2ccccc2N2C(=O)C(=O)C(C(C)=O)C2=O)C1=O (centres undefined)
> 100 µM (inactive)

Which GI50 value belongs to `COc1ccc(NC(=O)CC(=O)NN2C(=O)/C(=C/c3ccc(N(CCC#N)CCC#N)cc3C)N=C2/C=C\c2ccccc2)cc1` ?
> 100 µM (inactive)

---

Test system: UACC-257
Test: NCI tumour cell line growth inhibition, 48 h
Active and inactive are the calls of the source. Cut-off read from the data, not from the text of the source: active = GI50 up to about 1.1 µM and inactive = higher. Where a SMILES comes first, the peptide text is derived from it.
readout-kind: GI50

Worked examples, 5 compounds total:
INSERT INTO results (compound, test_value) VALUES
  ('O=[N+]([O-])c1ccc(Cl)c(C2CC(c3cccc4ccccc34)=Nc3ccccc3[S+]2[O-])c1 (configuration not stated)', '17 µM (inactive)'),
  ('Cc1ccc(O)c(-c2cc(-c3ccccc3)nc(/N=C\c3ccccc3)n2)c1', '> 100 µM (inactive)'),
  ('Cc1cc(C(=O)CBr)c(CN2C(=O)c3ccccc3C2=O)c(=O)n1C', '17 µM (inactive)'),
  ('C=C1C2CC3CCC2C(OC(=O)c2ccccc2C(=O)O)C13 (configuration not stated)', '> 100 µM (inactive)'),
  ('CC1=NN(c2cccc(Cl)c2)C2(SCC(=O)N2c2nc3ccccc3s2)/C1=C\c1ccc(Cl)cc1 (configuration not stated)', '21.6 µM (inactive)');

Kindly state the measured GI50 obtained for `O=C1c2cnccc2Cc2cccc3c2N1c1ccccc1S3` with UACC-257.
23.3 µM (inactive)

// map CC(=O)NC(CS)C(=O)NC(CO)C(=O)NC(CO)C(=O)NC(Cc1c[nH]c2ccccc12)C(=O)N1CCCC1C(=O)NC(CO)C(=O)NC(Cc1c[nH]c2ccccc12)C(=O)NC(Cc1c[nH]cn1)C(=O)NC(CO)C(=O)NC(Cc1c[nH]c2ccccc12)C(=O)NCC(=O)NCC(=O)NC(CC(=O)O)C(=O)NC(CCC(N)=O)C(=O)NC(CCCCN)C(=O)NC(Cc1ccccc1)C(=O)NC(CCCNC(=N)N)C(=O)NC(CCCCN)C(N)=O (configuration not stated) (Ac-CSSWPSWHSWGGDQKFRK-NH2; configuration not given here) to recorded GI50 (system: UACC-257)
> 25 µM (inactive)

Record N#CC1=C(c2ccccc2)C(O)(c2ccccc2)NC1=O (configuration not stated) : what is its GI50 with UACC-257?
> 100 µM (inactive)

Request - read-out GI50 | tested on UACC-257 | compound O=C1C2C3C=CC(C2C(=O)N1CN1CCOCC1)C1C2C(=O)N(CN4CCOCC4)C(=O)C2C31 (configuration not stated)
> 49.3 µM (inactive)

Could you share what GI50 was measured for `O=C1Nc2ccc(Br)cc2/C1=N/c1ccc(Cl)cc1` , tested on UACC-257?
18.1 µM (inactive)

Lab note: need GI50 for `Oc1[nH]c(Nc2cccc(CC(F)(F)F)c2)nc2ncnc1-2` on UACC-257, anyone have it?
> 100 µM (inactive)

Notebook entry, UACC-257 assay: GI50 of `Brc1cccc(/C=C/CN2CCN(CCOC(c3ccccc3)c3ccccc3)CC2)c1` = ?
17.9 µM (inactive)

Given the entry CC1(C)OCC(C2OC(=O)C(OCc3ccccc3)=C2OCc2ccccc2)O1 (configuration not stated) , what GI50 was observed with UACC-257?
29.9 µM (inactive)

Request - read-out GI50 | tested on UACC-257 | compound `O=c1c(Cl)cc2nc3ccccc3sc-2c1Cl`
2.75 µM (inactive)

Reported GI50 for UACC-257, given `N#CC1(c2nc3ccccc3o2)C(=O)C(=O)N(c2ccc(Cl)c(Cl)c2)C(=O)C1=O` ?
> 100 µM (inactive)

What GI50 appears in the records for this compound with UACC-257? `C[C@@H]1CC[C@@H]2[C@@H](C1)O[C@@H]([C@H](C)OCc1ccccc1)SC2(C)C`
25.5 µM (inactive)

Query for UACC-257: what GI50 does the record show for `CCCCCCCCCc1cc(=O)c2ccc(O)cc2o1` ?
65.3 µM (inactive)

Measured values drawn from ChEMBL document CHEMBL1201862 for this set.
